Endpoint: IC50. System: UniProt:P14780. Items follow.
Sequence (P14780 whole entry): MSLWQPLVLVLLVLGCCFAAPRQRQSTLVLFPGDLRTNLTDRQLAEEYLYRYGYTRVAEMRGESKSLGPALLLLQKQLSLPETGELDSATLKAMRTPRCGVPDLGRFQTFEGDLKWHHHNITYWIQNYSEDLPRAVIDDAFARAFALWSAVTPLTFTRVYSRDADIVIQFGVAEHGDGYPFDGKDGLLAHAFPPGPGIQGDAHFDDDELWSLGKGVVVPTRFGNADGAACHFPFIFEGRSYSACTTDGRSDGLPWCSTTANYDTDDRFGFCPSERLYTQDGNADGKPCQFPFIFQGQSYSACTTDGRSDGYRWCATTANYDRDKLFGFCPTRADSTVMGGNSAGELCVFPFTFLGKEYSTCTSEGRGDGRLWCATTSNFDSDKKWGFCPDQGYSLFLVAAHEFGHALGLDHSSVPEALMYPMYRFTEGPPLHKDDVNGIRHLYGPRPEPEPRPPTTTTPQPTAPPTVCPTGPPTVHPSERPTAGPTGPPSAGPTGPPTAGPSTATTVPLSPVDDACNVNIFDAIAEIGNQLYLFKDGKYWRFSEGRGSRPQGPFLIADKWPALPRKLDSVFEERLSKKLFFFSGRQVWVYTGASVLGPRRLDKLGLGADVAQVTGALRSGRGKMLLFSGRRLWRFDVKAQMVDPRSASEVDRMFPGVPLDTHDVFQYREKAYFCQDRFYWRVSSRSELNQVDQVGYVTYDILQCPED
readout-type: IC50 (nM)

COc1ccc(-c2ccc(S(=O)(=O)N[C@@H](CCCCCF)P(=O)(O)O)cc2)cc1: 19

A: CC(C)C(NS(=O)(=O)c1ccc(-c2ccc(F)nc2)cc1)P(=O)(O)O (stereo not given)
B: CC(C)C(N(Cc1ccccc1)S(=O)(=O)c1ccc(-c2ccc(OCCF)cc2)cc1)P(=O)(O)O (stereo not given)
Prompt: Could you tell me which of these two has the smaller IC50 figure? First: A Second: B Your answer should be the label of the entry you select.
Completion: B

* * *

system-under-test: Collagenase 3 (Homo sapiens)
readout-type: IC50 (nM)

CC(C)C(NS(=O)(=O)c1ccc(-c2ccc(OCCF)cc2)cc1)P(=O)(O)O (stereo not given): 2.41

a: CC(C)C(N(Cc1ccccc1)S(=O)(=O)c1ccc(-c2ccc(OCCF)cc2)cc1)P(=O)(O)O (stereo not given)
b: COc1ccc(-c2ccc(S(=O)(=O)NC(C(C)C)P(=O)(O)O)cc2)cc1 (racemic)
Prompt: // pick larger IC50 from pair: a vs b Your answer should be the label of the entry you select.
Completion: a
(a: 73.1 nM, b: 2.17 nM)

* * *

system-under-test: Neutrophil collagenase (Homo sapiens)
Sequence (P22894 whole entry): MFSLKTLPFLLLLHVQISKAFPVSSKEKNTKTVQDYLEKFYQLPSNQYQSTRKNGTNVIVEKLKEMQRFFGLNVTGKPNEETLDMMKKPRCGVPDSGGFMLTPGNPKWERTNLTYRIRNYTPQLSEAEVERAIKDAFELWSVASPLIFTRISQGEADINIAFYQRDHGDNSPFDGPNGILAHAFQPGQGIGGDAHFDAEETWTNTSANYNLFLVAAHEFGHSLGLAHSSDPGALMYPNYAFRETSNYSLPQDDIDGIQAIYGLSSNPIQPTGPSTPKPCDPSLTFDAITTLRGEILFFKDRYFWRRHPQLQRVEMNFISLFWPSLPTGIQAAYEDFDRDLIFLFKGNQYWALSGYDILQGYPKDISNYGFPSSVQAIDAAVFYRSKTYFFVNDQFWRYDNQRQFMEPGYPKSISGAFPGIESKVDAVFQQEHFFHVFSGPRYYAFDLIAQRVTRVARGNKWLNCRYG
experiment-description: Inhibition of MMP8 (unknown origin) using (7-methoxycoumarin-4-yl) acetyl pro-Leu-Gly-Leu-[3-(2,4-dinitrophenyl)-L-2,3-diamino-propionyl]-Ala-Arg-NH2 as substrate preincubated for 30 mins followed by substrate addition by microplate reader analysis
readout-type: IC50

COCc1ccc(-c2ccc(S(=O)(=O)NC(C(C)C)P(=O)(O)O)cc2)s1 (stereo not drawn): > 100 µM
CC(C)C(NS(=O)(=O)c1ccc(-c2ccc(F)nc2)cc1)P(=O)(O)O (stereo not drawn): > 100 µM

Consider the record given below.
Prompt: State IC50 on Neutrophil collagenase (Homo sapiens). Entry: Cc1ccc(-c2ccc(S(=O)(=O)NC(C(C)C)P(=O)(O)O)cc2)s1 (stereo not drawn)
Completion: > 100 µM
